// FMC63 Binding Score lookup, one value per entry
Test system: FMC63
Sequence (as listed by the source): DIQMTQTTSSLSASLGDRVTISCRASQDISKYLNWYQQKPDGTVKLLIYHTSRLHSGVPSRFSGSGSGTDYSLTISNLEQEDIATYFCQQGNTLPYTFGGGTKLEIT
Sequence (as listed by the source): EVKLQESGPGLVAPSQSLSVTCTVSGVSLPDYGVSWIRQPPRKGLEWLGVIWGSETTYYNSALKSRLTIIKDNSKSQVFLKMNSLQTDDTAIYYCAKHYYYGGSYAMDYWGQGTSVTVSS
Experiment: CD19 variant binding to anti-CD19 antibody FMC63 (score)
Conditions: Table 1A, CD19 single mutants (positions of SEQ ID NO:2)

{"columns": ["MOLECULE", "FMC63 Binding Score"],
 "data": [
  ["V16F: CD19 variant (protein) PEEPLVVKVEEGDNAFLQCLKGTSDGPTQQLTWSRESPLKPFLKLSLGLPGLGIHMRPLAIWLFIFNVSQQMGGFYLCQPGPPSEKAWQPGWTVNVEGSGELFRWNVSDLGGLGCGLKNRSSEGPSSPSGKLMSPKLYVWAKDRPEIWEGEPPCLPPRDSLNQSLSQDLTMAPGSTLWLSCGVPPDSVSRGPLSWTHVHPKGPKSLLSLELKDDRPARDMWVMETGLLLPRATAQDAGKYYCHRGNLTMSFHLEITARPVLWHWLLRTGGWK", "7. ± 1."],
  ["L228V: CD19 variant (protein) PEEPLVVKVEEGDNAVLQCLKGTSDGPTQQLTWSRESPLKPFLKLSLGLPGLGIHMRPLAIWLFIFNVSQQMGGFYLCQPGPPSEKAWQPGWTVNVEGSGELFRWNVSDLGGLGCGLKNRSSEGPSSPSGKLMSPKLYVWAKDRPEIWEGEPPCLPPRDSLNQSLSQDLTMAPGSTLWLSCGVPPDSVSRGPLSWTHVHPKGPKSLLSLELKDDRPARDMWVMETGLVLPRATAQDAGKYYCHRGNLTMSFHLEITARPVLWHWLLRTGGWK", "7.4 ± .4"]
]}
